tested on: blackgrass (Alopecurus myosuroides); experiment: Test A postemergence, blackgrass; type: in vivo; details: Postemergence, 125 g ai/ha; 0 to 100 scale (0 no effect, 100 complete control)
Give Plant response rating, Blackgrass for every item shown.
No unit in the answer, please; the number alone is enough.

Asked: Give the measured Plant response rating, Blackgrass for Cc1cc(C)c(C2=NOC3(CCC(C)(C)CC3)C2)cc1NS(=O)(=O)C(F)(F)F
Given back: 20

Asked: Give the measured Plant response rating, Blackgrass for Cc1cc(C)c(C2=NOC3(C2)CC(C)CC(C)C3)cc1NS(=O)(=O)C(F)(F)F (single isomer, unassigned)
Given back: 20

Asked: Give the measured Plant response rating, Blackgrass for Cc1cc(C)c(C(=O)N2CCCOCC2)cc1NS(=O)(=O)C(F)(F)F
Given back: 0

Asked: Give the measured Plant response rating, Blackgrass for Cc1cc(C)c(N(S(=O)(=O)C(F)(F)F)S(=O)(=O)C(F)(F)F)cc1C(=O)N1CCCOCC1
Given back: 0

Asked: Give the measured Plant response rating, Blackgrass for Cc1cc(Cl)c(C(=O)N2CCCCC2)cc1NS(=O)(=O)C(F)(F)F
Given back: 0

Asked: Give the measured Plant response rating, Blackgrass for Cc1cc(F)c(C(=O)N2CC(C)OC(C)C2)cc1N(S(=O)(=O)C(F)(F)F)S(=O)(=O)C(F)(F)F (centres unmarked)
Given back: 0

Asked: Give the measured Plant response rating, Blackgrass for Cc1cc(C)c(N(S(=O)(=O)C(F)(F)F)S(=O)(=O)C(F)(F)F)cc1C(=O)N1CCC(Cl)CC1
Given back: 0

Asked: Give the measured Plant response rating, Blackgrass for CSC(=O)N(c1cc(C2=NOC3(CCCC3)C2)c(C)cc1C)S(=O)(=O)C(F)(F)F
Given back: 0

Asked: Give the measured Plant response rating, Blackgrass for Cc1cc(Cl)c(C2=NOC(C)(C)C2)cc1N(S(=O)(=O)C(F)(F)F)S(=O)(=O)C(F)(F)F
Given back: 0

Asked: Give the measured Plant response rating, Blackgrass for COC1CCCN(C(=O)c2cc(NS(=O)(=O)C(F)(F)F)c(Cl)cc2C)C1 (centres unmarked)
Given back: 0

Asked: Give the measured Plant response rating, Blackgrass for Cc1cc(Cl)c(NS(=O)(=O)C(F)(F)F)cc1C(=O)N1CCOCC1C (centres unmarked)
Given back: 40

====

test system: barnyardgrass (Echinochloa crus-galli); experiment: Test A preemergence, barnyardgrass; type: in vivo; conditions: Preemergence, 125 g ai/ha; visual injury, 0 to 100 scale (0 no effect, 100 complete control), approx. 10 days
Assay Endpoint: Plant response rating, Barnyardgrass
No unit in the answer, please; the number alone is enough.

Asked: Answer with Plant response rating, Barnyardgrass of C#CCN(C)C(=O)c1cc(NS(=O)(=O)C(F)(F)F)c(C)cc1C measured for barnyardgrass (Echinochloa crus-galli).
Given back: 80

Asked: Answer with Plant response rating, Barnyardgrass of Cc1cc(Cl)c(NS(=O)(=O)C(F)(F)F)cc1C1=NOC(C)(C)C1 measured for barnyardgrass (Echinochloa crus-galli).
Given back: 90

Asked: Answer with Plant response rating, Barnyardgrass of Cc1cc(C)c(C(=O)N2CCC(CC(F)(F)F)CC2)cc1NS(=O)(=O)C(F)(F)F measured for barnyardgrass (Echinochloa crus-galli).
Given back: 80

Asked: Answer with Plant response rating, Barnyardgrass of Cc1cc(Cl)c(NS(=O)(=O)C(F)(F)F)cc1C(=O)N1CCOCC1C (centres unmarked) measured for barnyardgrass (Echinochloa crus-galli).
Given back: 90

Asked: Answer with Plant response rating, Barnyardgrass of Cc1cc(C)c(N(S(=O)(=O)C(F)(F)F)S(=O)(=O)C(F)(F)F)cc1C(=O)N1CCCOCC1 measured for barnyardgrass (Echinochloa crus-galli).
Given back: 70

Asked: Answer with Plant response rating, Barnyardgrass of CCN(CC)C(=O)c1cc(NS(=O)(=O)C(F)(F)F)c(C)cc1C measured for barnyardgrass (Echinochloa crus-galli).
Given back: 60

Asked: Answer with Plant response rating, Barnyardgrass of Cc1cc(F)c(C(=O)N2CCCCC2)cc1N(S(=O)(=O)C(F)(F)F)S(=O)(=O)C(F)(F)F measured for barnyardgrass (Echinochloa crus-galli).
Given back: 0

Asked: Answer with Plant response rating, Barnyardgrass of Cc1cc(C)c(C(=O)N2CCC(F)(F)C2)cc1NS(=O)(=O)C(F)(F)F measured for barnyardgrass (Echinochloa crus-galli).
Given back: 30

Asked: Answer with Plant response rating, Barnyardgrass of Cc1cc(F)c(C(=O)N2CC(C)OC(C)C2)cc1NS(=O)(=O)C(F)(F)F (centres unmarked) measured for barnyardgrass (Echinochloa crus-galli).
Given back: 0

Asked: Answer with Plant response rating, Barnyardgrass of Cc1cc(C)c(C(=O)N2CCC(S(C)(=O)=O)CC2)cc1NS(=O)(=O)C(F)(F)F measured for barnyardgrass (Echinochloa crus-galli).
Given back: 0

Asked: Answer with Plant response rating, Barnyardgrass of Cc1c(NS(=O)(=O)C(F)(F)F)cc(C(=O)N2CCCCC2)c(C)c1F measured for barnyardgrass (Echinochloa crus-galli).
Given back: 100

====

Tested on: Foxtail, Giant (giant foxtail, Setaria faberi)
Assay: Test A preemergence, Foxtail, Giant
Type: in vivo
Conditions: Preemergence, 125 g ai/ha; visual injury on 0 to 100 scale (0 no effect, 100 complete control), approximately 10 days
From the text: Seeds of plant species selected from barnyardgrass (Echinochloa crus-galli), kochia (Bassia scoparia), ragweed (common ragweed, Ambrosia artemisiifolia), Ryegrass, Italian (Italian ryegrass, Lolium multiflorum), Foxtail, Giant (giant foxtail, Setaria faberi), and pigweed (Amaranthus retroflexus) were planted into a blend of loam soil and sand and treated preemergence with a directed soil spray using test chemicals formulated in a non-phytotoxic solvent mixture which included a surfactant. […]
Label Criterion met when Foxtail, Giant plant response rating is at or above 60; otherwise label Criterion not met.

Asked: Does COCC1(COC)CC(c2cc(NS(=O)(=O)C(F)(F)F)c(C)cc2C)=NO1 [Compound 104] have a reported Foxtail, Giant plant response rating of at least 60?
Given back: Criterion met

Asked: Does CCn1cc(-c2cc(NS(=O)(=O)C(F)(F)F)c(C)cc2C)c(=O)n(C)c1=O [Compound 32] have a reported Foxtail, Giant plant response rating of at least 60?
Given back: Criterion met

Asked: Does CCn1nc(C)cc(-c2cc(N(S(=O)(=O)C(F)(F)F)S(=O)(=O)C(F)(F)F)c(C)cc2C)c1=O [Compound 52] have a reported Foxtail, Giant plant response rating of at least 60?
Given back: Criterion met

Asked: Does CCn1c(=O)c(-c2cc(NS(=O)(=O)C(F)(F)F)c(C)cc2C)cn(C)c1=O [Compound 37] have a reported Foxtail, Giant plant response rating of at least 60?
Given back: Criterion met

Asked: Does Cc1ccc(-c2ccnn(C)c2=O)cc1NS(=O)(=O)C(F)(F)F [Compound 59] have a reported Foxtail, Giant plant response rating of at least 60?
Given back: Criterion not met

Asked: Does COc1cnn(-c2cc(NS(=O)(=O)C(F)(F)F)c(C)cc2C)c(=O)c1 [Compound 54] have a reported Foxtail, Giant plant response rating of at least 60?
Given back: Criterion not met

Asked: Does Cc1cc(C)c(C2=NOC3CCCC23)cc1NS(=O)(=O)C(F)(F)F (centres unmarked) [Compound 166] have a reported Foxtail, Giant plant response rating of at least 60?
Given back: Criterion met

Asked: Does C#CCN(C)C(=O)c1cc(NS(=O)(=O)C(F)(F)F)c(C)c(F)c1C [Compound 179] have a reported Foxtail, Giant plant response rating of at least 60?
Given back: Criterion met

Asked: Does Cc1cc(C)c(N(S(=O)(=O)C(F)(F)F)S(=O)(=O)C(F)(F)F)cc1-c1cc(C(C)C)nn(C)c1=O [Compound 47] have a reported Foxtail, Giant plant response rating of at least 60?
Given back: Criterion not met

Asked: Does Cc1cc(C)c(N(S(=O)(=O)C(F)(F)F)S(=O)(=O)C(F)(F)F)cc1C1=NOC2(CCC(C)(C)CC2)C1 [Compound 139] have a reported Foxtail, Giant plant response rating of at least 60?
Given back: Criterion not met

Asked: Does Cc1cc(C)c(N(S(C)(=O)=O)S(=O)(=O)C(F)(F)F)cc1-c1cc(C(C)C)nn(C)c1=O [Compound 39] have a reported Foxtail, Giant plant response rating of at least 60?
Given back: Criterion not met

Asked: Does CCn1cc(-c2cc(N(S(=O)(=O)C(F)(F)F)S(=O)(=O)C(F)(F)F)c(C)cc2C)c(=O)n(CC)c1=O [Compound 43] have a reported Foxtail, Giant plant response rating of at least 60?
Given back: Criterion met

Asked: Does CC(=O)OCN(c1cc(C2=NO[C@@H]3CCC[C@H]23)c(C)cc1C)S(=O)(=O)C(F)(F)F (relative stereo) [Compound 102] have a reported Foxtail, Giant plant response rating of at least 60?
Given back: Criterion met

====

test system: kochia (Bassia scoparia); assay: Test A preemergence, kochia; format: in vivo; settings: Preemergence, 125 g ai/ha; visual injury on 0 to 100 scale (0 no effect, 100 complete control), approximately 10 days
Kochia plant response rating strictly less than 30 = TRUE. Otherwise FALSE.

Asked: Identify whether the molecule Cc1cc(C)c(-n2ncccc2=O)cc1NS(=O)(=O)C(F)(F)F records Kochia plant response rating below 30.
Given back: FALSE

Asked: Identify whether the molecule Cc1cc(C)c(N(COC(=O)CC(C)C)S(=O)(=O)C(F)(F)F)cc1C1=NOC2(CCCC2)C1 records Kochia plant response rating below 30.
Given back: TRUE

Asked: Identify whether the molecule CCn1cc(-c2cc(N(S(=O)(=O)C(F)(F)F)S(=O)(=O)C(F)(F)F)c(C)cc2C)c(=O)n(C)c1=O records Kochia plant response rating below 30.
Given back: FALSE

Asked: Identify whether the molecule Cc1c(NS(=O)(=O)C(F)(F)F)cc(C(=O)N2CCC3(CC2)OCCCO3)c(C)c1F records Kochia plant response rating below 30.
Given back: FALSE

Asked: Identify whether the molecule Cc1cc(F)c(-c2ccnn(C)c2=O)cc1NS(=O)(=O)C(F)(F)F records Kochia plant response rating below 30.
Given back: FALSE

Asked: Identify whether the molecule Cc1cc(C)c(N(COC(=O)c2ccccc2)S(=O)(=O)C(F)(F)F)cc1C1=NOC2(CCCC2)C1 records Kochia plant response rating below 30.
Given back: TRUE

Asked: Identify whether the molecule Cc1cc(Cl)c(NS(=O)(=O)C(F)(F)F)cc1C(=O)N1CCC(C#N)CC1 records Kochia plant response rating below 30.
Given back: FALSE

Asked: Identify whether the molecule Cc1cc(C)c(N(S(C)(=O)=O)S(=O)(=O)C(F)(F)F)cc1-c1ccnn(C)c1=O records Kochia plant response rating below 30.
Given back: FALSE
